Origin of measurements: paper PMC4336329

Catalogue of hERG current change (%, negative = inhibition) at 10uM readings, one per entry.
Target: human ether-à-go-go-related gene (hERG) potassium channel (human, UniProt Q12809);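 also: peak tail current of the secondary pulse compared with the same well before compound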
Sequence (Q12809 whole entry, looked up): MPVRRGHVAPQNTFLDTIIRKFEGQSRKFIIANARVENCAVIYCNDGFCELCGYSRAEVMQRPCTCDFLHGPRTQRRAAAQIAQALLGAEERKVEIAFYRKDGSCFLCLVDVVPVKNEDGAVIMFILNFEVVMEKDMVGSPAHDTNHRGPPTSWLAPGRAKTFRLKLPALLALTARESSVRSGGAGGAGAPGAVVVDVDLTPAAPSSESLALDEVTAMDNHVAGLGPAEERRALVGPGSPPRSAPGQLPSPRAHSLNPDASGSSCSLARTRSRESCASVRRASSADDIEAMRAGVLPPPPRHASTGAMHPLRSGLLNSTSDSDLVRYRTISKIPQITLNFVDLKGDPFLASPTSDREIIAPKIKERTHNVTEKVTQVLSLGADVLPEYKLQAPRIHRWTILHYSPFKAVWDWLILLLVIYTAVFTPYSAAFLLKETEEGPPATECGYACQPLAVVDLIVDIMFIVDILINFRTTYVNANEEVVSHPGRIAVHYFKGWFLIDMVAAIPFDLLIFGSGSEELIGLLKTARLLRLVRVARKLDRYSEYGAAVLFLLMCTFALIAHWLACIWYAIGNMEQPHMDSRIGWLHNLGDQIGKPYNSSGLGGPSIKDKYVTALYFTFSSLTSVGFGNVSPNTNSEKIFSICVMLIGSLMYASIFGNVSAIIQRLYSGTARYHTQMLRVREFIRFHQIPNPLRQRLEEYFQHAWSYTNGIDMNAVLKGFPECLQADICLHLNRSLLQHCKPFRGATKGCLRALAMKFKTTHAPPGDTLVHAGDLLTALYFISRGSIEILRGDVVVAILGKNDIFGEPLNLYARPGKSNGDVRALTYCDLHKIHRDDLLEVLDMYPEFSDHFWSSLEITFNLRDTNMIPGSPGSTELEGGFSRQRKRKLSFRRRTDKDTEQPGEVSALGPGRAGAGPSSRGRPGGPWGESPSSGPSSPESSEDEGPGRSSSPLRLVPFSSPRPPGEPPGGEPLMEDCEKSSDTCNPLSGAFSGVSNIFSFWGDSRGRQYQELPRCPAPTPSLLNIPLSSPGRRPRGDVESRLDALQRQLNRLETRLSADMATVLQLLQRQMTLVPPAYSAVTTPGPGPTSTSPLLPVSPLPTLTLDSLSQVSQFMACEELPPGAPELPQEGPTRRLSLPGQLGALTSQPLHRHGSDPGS
Experiment: primary screen, population patch clamp on CHO cells stably expressing hERG; higher = less effect of the substance
Description: Briefly, Chinese hamster ovary (CHO) cells stably expressing the hERG channel were dislodged from tissue culture flasks and dispensed into PPC plates. […] During the recording, background leak currents were estimated by a 100 ms step to -80 mV from an initial holding potential of -70 mV and subtracted from the subsequent current measurement. The campaign was conducted in two phases using slight differences in recording protocol. […]
Out of some 310,000 compounds screened, about 14,000 (4.5%) showed an effect of 50% or more. The effect is printed as a negative number. The sample holds strong results, similar compounds and a random draw of the others, so the mix is not that of the screen.
Property name: hERG current change (%, negative = inhibition) at 10uM (%)

# Compound, Reported measurement
measured = [
    ("C=CCn1c(SCC(=O)NC2CCS(=O)(=O)C2)nc2sc(CC)cc2c1=O (centres unmarked)", -47.8),
    ("CC1(C)CNC(=O)CC(C)(C)N1", 4.53),
    ("COc1ccc(N2CCN(C(CNC(=O)C(=O)NC3CC3)c3ccco3)CC2)cc1 (centres unmarked)", 13.6),
    ("NC(=O)c1ccc(NC(=O)CSc2nnc(-c3ccncc3)n2Cc2ccco2)cc1", 2.42),
    ("C=CCn1c(SCC(=O)N2CCN(C(=O)c3ccco3)CC2)nc2sc(CC)cc2c1=O", -76.3),
    ("COc1ccc(-c2noc(CCC(=O)NC3CCN(Cc4ccccc4)CC3)n2)cc1", -45.7),
    ("C=CCn1c(SCC(=O)Nc2cc(C)on2)nc2sc(CC)cc2c1=O", 1.3),
    ("Cc1[nH]c2ccccc2c1C(=O)C(C)OC(=O)c1ccccc1NCCO (centres unmarked)", 15),
    ("Cc1ccc(-c2noc(CCC(=O)NCC3CCCO3)n2)cc1 (centres unmarked)", 2),
    ("COc1cccc(CN2CCN(S(=O)(=O)c3ccc(Br)cc3)CC2)c1", -29.4),
    ("C=CCn1c(SCC(=O)Nc2ccc(O)cc2)nc2sc(CC)cc2c1=O", -62.5),
    ("COc1ccc(-c2noc(CCC(=O)NCCc3cccc(C)c3)n2)cc1", -0.562),
    ("NC(=O)c1ccc(NC(=O)CSc2nnc(-c3cccnc3)n2Cc2ccco2)cc1", 6.87),
    ("C=CCn1c(SCC(=O)O)nc2sc(CC)cc2c1=O", 13.8),
    ("C=CCn1c(SCC(=O)NC2CC2)nc2sc(CC)cc2c1=O", -54.6),
    ("CCOC(=O)Cc1csc(NC(=O)CSc2nnc(-c3cccnc3)n2Cc2ccco2)n1", -30.5),
    ("C=CCn1c(SCC(=O)NC2CCCC2)nc2sc(C)cc2c1=O", -5.84),
    ("COCCn1c(SCC(=O)Nc2c(C)n(C)n(-c3ccccc3)c2=O)nc2ccccc2c1=O", -19.6),
    ("Cc1ccc(-c2noc(CCC(=O)NCCN3CCN(Cc4ccccc4)CC3)n2)cc1", -49),
    ("O=S(=O)(c1ccc(Br)cc1)N1CCCN(Cc2cccc(F)c2)CC1", -17.9),
]
